# Tested on: OVCAR-3 ovarian
# measurement-description: NCI tumour cell line growth inhibition, 48 h
Can you tell me TGI for the items I'm about to list?
Answer format: numeric, µM implied, no suffix.

Query block: Look up TGI for this compound: CCOC(=N)/C(=C1\OC(N)=C(c2ccc(Cl)cc2)C1=O)c1ccc(Cl)cc1
Result block: 32.8

Query block: Look up TGI for this compound: CC1=Nc2sc3c(c2C2=NCCN12)CCCC3
Result block: 66.8

Query block: Look up TGI for this compound: O=C1Nc2ccc(Cl)cc2/C1=C\c1c(Cl)nc2sccn12
Result block: 12.4

Query block: Look up TGI for this compound: COc1cccc(C2c3cc4c(cc3OC(N3CCCC3)C2C)OCO4)c1O (stereo unspecified)
Result block: 8.02

Query block: Look up TGI for this compound: CC/C=C(\C(=C/CC)[N+](=O)[O-])[N+](=O)[O-]
Result block: 30.5

Query block: Look up TGI for this compound: O=C1/C(=C\c2ccccn2)c2ccccc2N1c1c(Cl)cccc1Cl
Result block: 3.25

Query block: Look up TGI for this compound: Oc1ccc(Cl)cc1CN1CCN(Cc2cc(Cl)ccc2O)C1
Result block: 11.8

Query block: Look up TGI for this compound: O=C(OCc1ncc(-c2ccc(C(F)(F)F)cc2)c(NC2CCCCCC2)n1)c1c(F)c(F)c(F)c(F)c1F
Result block: 13.8

Query block: Look up TGI for this compound: CCC(CNc1cc(OC)cc2cccnc12)NC1CCCCC1 (stereo unspecified)
Result block: 65.5

---

# System: LOX IMVI melanoma
# measurement-description: NCI tumour cell line growth inhibition, 48 h; in the data active means GI50 below about 0.43 µM; inactive means the rest
Outcome (select one): 1 for active, -1 for inactive

Query block: Outcome logged for CCOC(=O)CC1C(COC(=O)NC)OC(n2cnc3c(NC(=O)Nc4ccccc4)ncnc32)C1O[Si](C)(C)C(C)(C)C (configuration not stated) in this assay:
Result block: -1

Query block: Outcome logged for COc1ccccc1CNCCCN1C(=O)c2ccc3c4c(ccc(c24)C1=O)C(=O)N(CCCCNCCCN)C3=O in this assay:
Result block: -1

Query block: Outcome logged for O=C(/C=C/c1ccccc1)n1c(-c2ccc(Cl)cc2)nc2ccccc21 in this assay:
Result block: -1

Query block: Outcome logged for N#CC1=C(N)NC(N2CCOCC2)=NC12Nc1ccccc1N2 in this assay:
Result block: -1

Query block: Outcome logged for Cn1c2ccc(Br)cc2c2c3c(c4c5ccccc5[nH]c4c21)C(=O)N(O)C3=O in this assay:
Result block: 1

Query block: Outcome logged for COc1cc(Nc2nc3ccccc3cc2C(=O)Nc2ccc(F)c(F)c2)cc(OC)c1OC in this assay:
Result block: -1

Query block: Outcome logged for CC(=O)[CH-]C(=O)c1ccccc1.CC(=O)[CH-]C(=O)c1ccccc1.CCOCC[O-].CCOCC[O-].[Ti+4] in this assay:
Result block: -1

Query block: Outcome logged for COc1cccc(NC(=O)c2sc3nc4c(cc3c2N)C(=O)CCC4)c1 in this assay:
Result block: -1

Query block: Outcome logged for COc1cc(CNc2ccccc2C(=O)N2CCN(C(=O)c3cc(-c4cc(OC)c(OC)c(OC)c4)n4nc(-c5ccccc5)cc4n3)CC2)cc(OC)c1OC in this assay:
Result block: -1

Query block: Outcome logged for COc1ccc2nc3cc([N+](=O)[O-])ccc3c(NCCCN(C)C)c2c1 in this assay:
Result block: -1

Query block: Outcome logged for CC(C)(C)[Si](C)(C)OC1[C@@H](O[Si](C)(C)C(C)(C)C)[C@@H](CNC(=O)NC(=O)CCl)O[C@H]1n1cnc2c(NC(=O)Nc3ccccc3)ncnc21 (some centres not stated) in this assay:
Result block: 1

Query block: Outcome logged for Nc1nc(Cl)c(N=Nc2ccc(Cl)cc2)c(NCC2(CO)CCC2)n1 in this assay:
Result block: -1

---

# System: DU-145 prostate
# measurement-description: NCI tumour cell line growth inhibition, 48 h; in the data active means GI50 below about 0.43 µM; inactive means the rest
Outcome (select one): class 1 (active), class 0 (inactive)

Query block: Outcome logged for N#CCN/C=C\C(=O)c1ccc(Cl)cc1 in this assay:
Result block: class 0

Query block: Outcome logged for OCC(O)c1nc2ccc3[nH]ncc3c2c2c1CCCC2 (stereo not given) in this assay:
Result block: class 0

Query block: Outcome logged for O=C(/C=C/c1ccccc1)n1c(-c2ccc(Cl)cc2)nc2ccccc21 in this assay:
Result block: class 0

Query block: Outcome logged for COc1cccc(NC(=O)c2sc3nc4c(cc3c2N)C(=O)CCC4)c1 in this assay:
Result block: class 1

Query block: Outcome logged for CC(C)(C)[Si](C)(C)OC1[C@@H](O[Si](C)(C)C(C)(C)C)[C@@H](CNC(=O)NC(=O)CCl)O[C@H]1n1cnc2c(NC(=O)Nc3ccccc3)ncnc21 (stereo not given in full) in this assay:
Result block: class 0

---

Can you tell me TGI for the items I'm about to list?
# System: MDA-MB-435
# measurement-description: NCI tumour cell line growth inhibition, 48 h

Query block: Look up TGI for this compound: COc1ccc(C2C3COc4ccccc4C3=NN2c2ccccc2)cc1 (stereo not given)
Result block: > 100 µM

Query block: Look up TGI for this compound: CC(=O)OC[C@@H](OC(C)=O)[C@H](OC(C)=O)[C@@H]1OC(C)(C)O[C@@H]1C1SCCCS1
Result block: > 100 µM

Query block: Look up TGI for this compound: Cc1cccc(C)c1NC(=O)Nc1ccc(S(N)(=O)=O)cc1
Result block: > 100 µM

Query block: Look up TGI for this compound: CC1=C(C(=O)c2ccccc2)C23C(=O)N(c4ccccc4)C(=O)C2=C(O)C=CC3(O)N1 (stereo not given)
Result block: > 100 µM

Query block: Look up TGI for this compound: COc1ccc(N2C=Nn3c(nc4sc5c(c4c3=O)CCCC5)C2)cc1
Result block: > 100 µM

Query block: Look up TGI for this compound: Oc1ccc(Cl)cc1CN1CCN(Cc2cc(Cl)ccc2O)C1
Result block: 7.92 µM

Query block: Look up TGI for this compound: O=C1C=CC(=O)c2cc(Sc3ccccc3)c(=O)ccc21
Result block: 71 µM

Query block: Look up TGI for this compound: O=C(O)CC1NCc2cc3ccccc3nc21 (stereo not given)
Result block: > 100 µM

Query block: Look up TGI for this compound: C=C1C(=O)O[C@@H]2C[C@]3(C)CC[C@]4(C)[C@H](CC[C@@H]5[C@@]6(C)CCC(=O)C(C)(C)[C@@H]6CC[C@]54C)[C@H]3[C@H]12
Result block: 25.4 µM

Query block: Look up TGI for this compound: N#Cc1c(-c2ccccc2)[nH]c(=O)n(C2OC(CO)C(O)C(O)C2O)c1=O (stereo not given)
Result block: > 100 µM

---

Can you tell me TGI for the items I'm about to list?
# Test system: RXF 393 renal
# measurement-description: NCI tumour cell line growth inhibition, 48 h
Answer format: numeric, µM implied, no suffix.

Query block: Entry O=C(Nc1ccc(-n2ccc3c(NC(=O)c4ccccc4)ncnc32)cc1)Nc1cccc(Cl)c1Cl , system RXF 393 renal: what TGI was measured?
Result block: 1.79

Query block: Entry O=C1OC(O)C(Oc2c(Cl)cccc2Cl)=C1Cl (stereo unspecified) , system RXF 393 renal: what TGI was measured?
Result block: 23.9

Query block: Entry CN(CCNCc1cn(C)c2c1ccc1ccccc12)CCNCc1cn(C)c2c1ccc1ccccc12 , system RXF 393 renal: what TGI was measured?
Result block: 1.71

---

# Test system: UACC-62 melanoma
# measurement-description: NCI tumour cell line growth inhibition, 48 h
Can you tell me GI50 for the items I'm about to list?

Query block: Look up GI50 for this compound: COc1cccc(/C=C/C(=O)c2ccc(Cl)cc2Cl)c1
Result block: 8.06 µM

Query block: Look up GI50 for this compound: CC(=O)[CH-]C(=O)c1ccccc1.CC(=O)[CH-]C(=O)c1ccccc1.CCOCC[O-].CCOCC[O-].[Ti+4]
Result block: 15.5 µM

Query block: Look up GI50 for this compound: Cc1cc(C)c(Cn2cnc3c(Cl)ncnc32)c(C)c1CCl
Result block: 61.3 µM

Query block: Look up GI50 for this compound: Nc1nc(N)c2cc(NCc3ccc(Cl)c(Cl)c3)ccc2n1
Result block: 1.39 µM

Query block: Look up GI50 for this compound: COc1ccc(C(=O)c2cc3c(N)c(C(=O)Nc4ccc(C)cc4)sc3nc2C)cc1
Result block: 12.2 µM

---

# Test system: HCT-15 colon
# measurement-description: NCI tumour cell line growth inhibition, 48 h
Can you tell me TGI for the items I'm about to list?

Query block: Look up TGI for this compound: COc1ccc(C(=O)c2cc3c(N)c(C(=O)Nc4ccc(C)cc4)sc3nc2C)cc1
Result block: > 100 µM

Query block: Look up TGI for this compound: Cc1cc(=O)oc2c(C)c(OCCCOc3ccc4c(C)cc(=O)oc4c3C)ccc12
Result block: > 100 µM

Query block: Look up TGI for this compound: CC(C)(C)C(=O)OCC1CCC(n2cnc3c(=O)[nH]c(N)nc32)O1 (stereo not given)
Result block: > 100 µM

Query block: Look up TGI for this compound: O=C1Nc2ccc(Cl)cc2/C1=C\c1c(Cl)nc2sccn12
Result block: > 100 µM

Query block: Look up TGI for this compound: CCC(CNc1cc(OC)cc2cccnc12)NC1CCCCC1 (stereo not given)
Result block: > 100 µM

Query block: Look up TGI for this compound: CCN(CC)CCCC(C)N=C(C1=C(C(=NC(C)CCCN(CC)CC)c2cccc(OC)c2)C(=O)NC1=O)c1cccc(OC)c1 (stereo not given)
Result block: 5.53 µM

Query block: Look up TGI for this compound: COc1c(O)cc2c(c1O)C(=O)/C(=C/c1ccc(O)cc1)CO2
Result block: 38.2 µM

Query block: Look up TGI for this compound: CCOP(=O)(OCC)C(N)c1ccc(Cl)cc1 (stereo not given)
Result block: > 100 µM

Query block: Look up TGI for this compound: Cc1ccc(/C(O)=C/c2nc3ccccc3s/c2=N/CS(=O)(=O)c2ccc(C)cc2)cc1
Result block: > 10 µM

Query block: Look up TGI for this compound: O=C(Nc1ccc(-n2ccc3c(NC(=O)c4ccccc4)ncnc32)cc1)Nc1cccc(Cl)c1Cl
Result block: 5.42 µM
